Numbers sourced from ChEMBL document CHEMBL3991601.

The source made the active and inactive calls.
This section lists Kd readings for Casein kinase I isoform alpha (Homo sapiens).

Take a look at these entries with their results.
[
  {
    "smiles_record": "CC(C)(C)c1nc(-c2cccc(NS(=O)(=O)c3c(F)cccc3F)c2F)c(-c2ccnc(N)n2)s1",
    "subject_of_test": "Casein kinase I isoform alpha (Homo sapiens)",
    "Kd": "> 30 µM (inactive)"
  },
  {
    "smiles_record": "CCS(=O)(=O)c1cccc(-c2cc(C(=O)NC3CCN(C)CC3)c(C)c3[nH]c4ncc(C)cc4c23)c1",
    "subject_of_test": "Casein kinase I isoform alpha (Homo sapiens)",
    "Kd": "> 30 µM (inactive)"
  },
  {
    "smiles_record": "COc1cc2ncnc(Oc3cccc(NC(=O)Nc4cc(C(C)(C)C(F)(F)F)on4)c3)c2cc1OC",
    "subject_of_test": "Casein kinase I isoform alpha (Homo sapiens)",
    "Kd": "> 30 µM (inactive)"
  },
  {
    "smiles_record": "CNC(=O)c1cccc2cc(Oc3ccnc4cc(OCC5(N)CC5)c(OC)cc34)ccc12",
    "subject_of_test": "Casein kinase I isoform alpha (Homo sapiens)",
    "Kd": "> 30 µM (inactive)"
  },
  {
    "smiles_record": "COCc1c(-c2ccc(NC(=O)Nc3cc(C(F)(F)F)ccc3F)c(F)c2)c2c(N)ncnn2c1CN1CCOCC1",
    "subject_of_test": "Casein kinase I isoform alpha (Homo sapiens)",
    "Kd": "> 30 µM (inactive)"
  },
  {
    "smiles_record": "CN(C[C@@H]1COCCO1)S(=O)(=O)Nc1ccc2ccc3ncc(-c4cnn(C)c4)cc3c(=O)c2c1",
    "subject_of_test": "Casein kinase I isoform alpha (Homo sapiens)",
    "Kd": "> 30 µM (inactive)"
  },
  {
    "smiles_record": "CC(=O)c1cnc2ccc(-c3cc(Cl)c(O)c(Cl)c3)nc2c1N[C@H]1CC[C@H](CN(C)C)CC1",
    "subject_of_test": "Casein kinase I isoform alpha (Homo sapiens)",
    "Kd": "0.931 µM (active)"
  },
  {
    "smiles_record": "Cc1csc(-c2nnc(Nc3ccc(Oc4ncccc4-c4ccnc(N)n4)cc3)c3ccccc23)c1",
    "subject_of_test": "Casein kinase I isoform alpha (Homo sapiens)",
    "Kd": "> 30 µM (inactive)"
  },
  {
    "smiles_record": "COc1cc([C@@H]2c3cc4c(cc3[C@H](O)[C@H]3COC(=O)[C@@H]23)OCO4)cc(OC)c1OC",
    "subject_of_test": "Casein kinase I isoform alpha (Homo sapiens)",
    "Kd": "> 30 µM (inactive)"
  },
  {
    "smiles_record": "CNC(=O)c1nn(C)c2c1C(C)(C)Cc1cnc(Nc3ccc(N4CCN(C)CC4)cc3)nc1-2",
    "subject_of_test": "Casein kinase I isoform alpha (Homo sapiens)",
    "Kd": "0.995 µM (active)"
  }
]

Hi, could you look up Kd for each item in my list?
1. Cc1cnc(NC(=O)Nc2cc(Br)c(C)cc2OC[C@@H]2CNCCO2)cn1
2. Cc1nc2cc(-n3ncc(C(=O)c4cc5ccccc5[nH]4)c3N)ccc2[nH]1
3. O=C(Nc1nc2cccc(-c3ccc(CN4CCS(=O)(=O)CC4)cc3)n2n1)C1CC1
4. O=C(Cc1ccc(-c2ccc(OCCN3CCOCC3)cc2)cn1)NCc1ccccc1
5. COc1ccc(S(=O)(=O)N(C(C)=O)c2ccccc2/C=C/c2cc[n+]([O-])cc2)cc1
6. O=C(Nc1cc(C(F)(F)F)cc(C(F)(F)F)c1)c1cc(Cl)ccc1O

Result:
["> 30 µM (inactive)", "> 30 µM (inactive)", "> 30 µM (inactive)", "> 30 µM (inactive)", "> 30 µM (inactive)", "> 30 µM (inactive)"]
